B1: CPEB3 Ribozyme (parent)
chain: UAACAGGGGGCCACAGCAGAAGCGUUCACGUCGCAGCCCCUGUCAGAUUCUGGUGAAUCUGCGAAUUCUGCUGUAUAUCUC

- Variants of: B1
- Procedure text: self-cleavage, relative activity (ratio to wild type); higher = more cleavage; in vitro, sequencing
Rule: self-cleavage under 0.3 gives not fulfilled, otherwise fulfilled.

| Variant label | Class label |
| --- | --- |
| A28G C44U | not fulfilled |
| A20U G46U | not fulfilled |
| A15U C44U | not fulfilled |
| U31C U80G | fulfilled |
| A5U A21C | not fulfilled |
| G6A A56U | not fulfilled |
| G9A U49C | not fulfilled |
| A28U U31G | fulfilled |
| U43C U78G | fulfilled |
